# Run description: Viability qHTS for spleen associated tyrosine kinase inhibitor (SYKi) drug resistant MV4-11 cells (AID 1963824); also: nearly all actives have a fitted effect of over 35% in size
# Condition parameters: SYKi-resistant MV4-11 viability, CellTiter-Glo, 72 h; series mostly up to 45 µM
Inconclusive results are not listed. The source made the active and inactive calls. Calls follow the shape of the dose curve; as a rule, active = well fitted cell-killing curve with a large enough effect; inconclusive = small, poorly fitted or top-dose-only effect, or effect the other way; inactive = no such curve, though single readings can be large or run the other way.
Result category, one only: active, inactive

Solved entries (count: 5):
1. Cc1cn([C@@H]2O[C@H](CO)[C@@H](O)[C@H]2F)c(=O)[nH]c1=O; inactive
2. COc1ccc(/C=C/C(=O)O[C@H]2[C@H](O[C@H]3[C@@H]4C=CO[C@@H](O[C@@H]5O[C@H](CO)[C@@H](O)[C@H](O)[C@H]5O)[C@@H]4[C@@]4(CO)O[C@@H]34)O[C@@H](C)[C@H](O)[C@H]2OC(C)=O)cc1; inactive
3. CC(F)(F)CN1CCOc2c(nn(-c3ccccc3Cl)c2-c2ccc(Cl)cc2)C1=O; active
4. CC[C@H](C)C(=O)O[C@H]1CCC=C2C=C[C@H](C)[C@H](CC[C@@H]3C[C@@H](O)CC(=O)O3)[C@H]21; active
5. CC(C)(C)Nc1nc(Nc2ccc(C(N)=O)cc2)cc(N)c1C#N; active

Data request: How was N#CN1CCC[C@@H](n2nc(-c3ccc(Oc4ccc(F)cc4F)cc3)c(C(N)=O)c2N)C1 classified in this test?
Data returned: active

Data request: Next molecule: CCN(CC)CCOC(=O)C1(c2ccccc2)CCCC1
Data returned: inactive

Data request: Follow-up item: COc1c/c(=C2\C=c3ccccc3=N2)[nH]/c1=C\c1[nH]c(C)cc1C
Data returned: active

---

# Run description: Viability qHTS for spleen associated tyrosine kinase inhibitor (SYKi) naive MV4-11 cells (AID 1963823); also: nearly all actives have a fitted effect of over 40% in size
# Condition parameters: MV4-11 AML viability, CellTiter-Glo luminescence, 72 h; series mostly up to 45 µM
Records with an inconclusive call do not appear. Activity calls are given as the source filed them. The call rests on the fitted dose curve; in most records, active means well fitted cell-killing curve with a large enough effect; inconclusive means small, poorly fitted or top-dose-only effect, or effect the other way; inactive means no such curve, though single readings can be large or run the other way.
Hi there, use one of these labels in your reply, thanks! active, inactive

1. COc1cccc2c1CCCC2CCCN1CCN(C2CCCCC2)CC1 (stereo unspecified); active

Data request: Please let me know the test result on file for CC1=C(C(=O)Nc2cc(Cl)ccc2Cl)C(c2ccco2)C2=C(CCCC2=O)N1 (stereo unspecified) .
Data returned: active

Data request: Moving on to Nc1nc(N)c2nc(-c3cccc(O)c3)c(-c3cccc(O)c3)nc2n1
Data returned: active

Data request: Try CC[C@@H]1C(=O)N(C)c2cnc(Nc3ccc(C(=O)NC4CCC(N5CCN(CC6CC6)CC5)CC4)cc3OC)nc2N1C(C)C (stereo partly specified) next.
Data returned: active

Data request: Subsequent entry: CC(C)(C)c1ccc(C(O)CCCN2CCC(C(O)(c3ccccc3)c3ccccc3)CC2)cc1 (stereo unspecified)
Data returned: active

Data request: Now this one: CCN1/C(=C/C=C/c2sc3ccccc3[n+]2CC)Sc2ccccc21
Data returned: active

Data request: Now give it for Cc1c(F)cc(C(=O)NC2CC2)cc1-c1ccc(C(=O)NCC(C)(C)C)cn1 too.
Data returned: active

Data request: Do the same for C[C@@H]1C(=O)O[C@H]2[C@@H](O)C34[C@H]5C[C@@H](C(C)(C)C)C36[C@@H](OC(=O)[C@@H]6O)O[C@@]4(C(=O)O5)[C@@]12O (stereo partly specified) please
Data returned: inactive

Data request: For O=C(NC1CCN(CCCCC2(C(=O)NCC(F)(F)F)c3ccccc3-c3ccccc32)CC1)c1ccccc1-c1ccc(C(F)(F)F)cc1 then?
Data returned: active

Data request: Now the same for CC(=O)OC1C(O)CC2(C)C(CCC3(C)C2CC=C2C4C5(CCC(CO[C@@H]6O[C@H](CO)[C@@H](O)[C@H](O)[C@H]6O)(OC5=O)C4(C)O)C(O)CC23C)C1(C)C (stereo partly specified)
Data returned: inactive

Data request: Follow-up item: CCOC(CN1C(=O)[C@](CC(=O)Nc2ccc(C)cc2)(NC(=O)Nc2ccc(C)cc2)c2ccccc21)OCC
Data returned: active

Data request: Same question for COc1cc(/C=C/C(=O)O[C@H]2C[C@@H]3C(C(=O)O)=CO[C@@H](O[C@@H]4O[C@H](CO)[C@@H](O)[C@H](O)[C@H]4O)[C@@H]3[C@H]2C)ccc1O please.
Data returned: inactive

Data request: Thanks! And Cc1ncc(NC(=O)c2cccc(C(F)(F)F)c2)cc1-c1cnc(OC2CCOCC2)c(N2CCOCC2)c1 ?
Data returned: active

Data request: CC1(O)CC(O)C2(O)C=COC(O[C@@H]3O[C@H](CO)[C@@H](O)[C@H](O)[C@H]3O)C12 (stereo partly specified) ?
Data returned: inactive

Data request: And the next one, C=C(C)C1CC2(CO)C(=CC1=O)CCC(O)C2C (stereo unspecified) ?
Data returned: inactive

Data request: What about N#Cc1ccc2[nH]c(O)c(-c3ccc(CN4CCOCC4)cn3)c2c1 ?
Data returned: inactive

Data request: How about this molecule: COc1cc(C2c3cc4c(c(O)c3CC(CO)C2C(=O)O)OCO4)cc(OC)c1O (stereo unspecified)
Data returned: active

Data request: Field entry: CCCN(CCC)C(=O)C(CCC(=O)OCCCN1CCN(CCOC(=O)Cc2c(C)n(C(=O)c3ccc(Cl)cc3)c3ccc(OC)cc23)CC1)NC(=O)c1ccccc1 (stereo unspecified)
Data returned: active

Data request: // same read-out, input: CCC(C)C(=O)OC1CC(O)C23C4OCC5(C(O)CC2C1(C)C(O)O4)C3C(=O)CC1(C)C(c2ccoc2)CC2OC215 (stereo unspecified)
Data returned: active

Data request: Same thing, different molecule: CC(C)=C1CC2[C@](C)(CC[C@@H](OC(=O)C3(C)OC3C)[C@@]2(C)O)CC1=O (stereo partly specified)
Data returned: inactive

Data request: Would you kindly repeat that for CC(=O)Nc1ccn(C2COC(COC(=O)c3ccccc3)O2)c(=O)n1 (stereo unspecified) ?
Data returned: active

Data request: Also CCOc1cc(OCC)c(C(=O)CCC(=O)O)cc1OCC , if possible.
Data returned: inactive

Data request: And then CS(=O)(=O)c1ccccc1N1CCN(c2nc3c(c(=O)[nH]2)CSCC3)CC1 , what is it?
Data returned: inactive

Data request: Moving on to Cn1ncc(NC(=O)c2nc(-c3c(F)cccc3F)sc2N)c1N1CC[C@@H](N)[C@H](F)CC1
Data returned: active
